- experimentalSystem: T1, huMICB*005 alpha 3-his (human)
- T1 construct: whole construct entry: GS, alpha 3 domain, GNS, His8; also called MICB005.His; MICB*005 alpha3 construct
- T1 chain: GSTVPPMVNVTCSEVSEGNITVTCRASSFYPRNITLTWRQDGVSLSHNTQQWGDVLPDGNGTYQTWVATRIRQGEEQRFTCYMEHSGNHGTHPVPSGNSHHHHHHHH
- assayInfo: SPR, Biacore 8K, antibody on Protein A chip
Kd strictly less than 2 nM = YES. Otherwise NO.

1D5v3 (antibody, IgG1, V domains shown, humanized variant of 1D5) VH: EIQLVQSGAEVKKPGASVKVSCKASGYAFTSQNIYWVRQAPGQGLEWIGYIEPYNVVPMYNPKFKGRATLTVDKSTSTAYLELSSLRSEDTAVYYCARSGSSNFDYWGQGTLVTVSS VL: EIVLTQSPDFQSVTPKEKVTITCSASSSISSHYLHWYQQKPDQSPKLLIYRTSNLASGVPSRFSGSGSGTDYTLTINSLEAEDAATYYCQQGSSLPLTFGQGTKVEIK    YES
1D5v25 (antibody, IgG1, V domains shown, humanized variant of 1D5) VH: EVQLVQSGAEVKKPGASVKVSCKASGYAFTSQNIYWVRQAPGQGLEWIGYIEPYNVVPMYNPKFKGRVTITVDTSTSTAYLELSSLRSEDTAVYYCARSGSSNFDYWGQGTLVTVSS VL: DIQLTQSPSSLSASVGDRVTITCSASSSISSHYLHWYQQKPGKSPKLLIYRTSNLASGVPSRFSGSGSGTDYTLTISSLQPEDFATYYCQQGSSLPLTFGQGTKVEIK    YES
1D5v16 (antibody, IgG1, V domains shown, humanized variant of 1D5) VH: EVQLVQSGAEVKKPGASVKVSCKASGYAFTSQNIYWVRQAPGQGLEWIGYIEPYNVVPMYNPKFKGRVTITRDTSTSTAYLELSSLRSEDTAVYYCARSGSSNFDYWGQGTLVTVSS VL: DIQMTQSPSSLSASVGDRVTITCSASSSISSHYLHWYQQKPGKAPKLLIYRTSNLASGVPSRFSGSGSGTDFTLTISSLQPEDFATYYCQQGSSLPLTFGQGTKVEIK    NO
15F11 (antibody, V domains shown, mouse variable domains) VH: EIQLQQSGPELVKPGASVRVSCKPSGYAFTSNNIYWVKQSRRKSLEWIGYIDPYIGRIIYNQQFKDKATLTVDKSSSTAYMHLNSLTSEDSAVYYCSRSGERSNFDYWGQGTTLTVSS VL: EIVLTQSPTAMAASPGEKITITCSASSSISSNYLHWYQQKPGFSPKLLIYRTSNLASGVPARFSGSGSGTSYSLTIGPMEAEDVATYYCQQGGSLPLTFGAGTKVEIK    NO
1D5v2 (antibody, IgG1, V domains shown, humanized variant of 1D5) VH: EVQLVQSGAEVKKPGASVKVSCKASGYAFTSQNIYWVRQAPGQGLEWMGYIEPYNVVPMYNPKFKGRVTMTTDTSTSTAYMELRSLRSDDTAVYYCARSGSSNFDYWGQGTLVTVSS VL: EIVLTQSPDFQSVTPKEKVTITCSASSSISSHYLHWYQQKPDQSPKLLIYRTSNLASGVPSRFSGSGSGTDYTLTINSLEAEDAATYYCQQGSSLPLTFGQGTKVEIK    NO
